These data points were gathered from patent US11279733B2.

Test system: Neisseria gonorrhoeae
Assay: MIC determination, Neisseria gonorrhoeae
Type: cell-based
Conditions: strain F89
Positions of bridges follow the written chain, without caps; N, C: chain ends. Non-standard residues stand in square brackets, D forms with d. Residues, ends and D or L forms follow the SMILES beside them. *: point of attachment. Decanoyl(3R-OH) = CCCCCCC[C@@H](O)CC(=O)*; dDab = NCC[C@@H](N)C(=O)O; Orn = NCCC[C@H](N)C(=O)O; dDap = NC[C@@H](N)C(=O)O; Dab = NCC[C@H](N)C(=O)O
result type: MIC N. gonorrhoeae F89 (µg/mL)

- CCCCCCC[C@@H](O)CC(=O)N[C@H](CCN)C(=O)N[C@H]1CCNC(=O)[C@H](CC(C)C)NC(=O)[C@H](CCN)NC(=O)[C@H](CCCN)NC(=O)[C@H](CC(C)C)NC(=O)[C@@H](Cc2ccccc2)NC(=O)[C@H](CCN)NC1=O [compound 991] ({Decanoyl(3R-OH)}-[dDab][Dab][Dab][dF]L[Orn][Dab]L; lactam 2-C): 1.3
- CCCCCCC[C@@H](O)CC(=O)N[C@H](CCN)C(=O)N[C@H]1CCNC(=O)[C@H](Cc2c[nH]c3ccccc23)NC(=O)[C@H](CCN)NC(=O)[C@H](CCN)NC(=O)[C@H](CC(C)C)NC(=O)[C@@H](Cc2ccccc2)NC(=O)[C@H](CCN)NC1=O [compound 6509] ({Decanoyl(3R-OH)}-[dDab][Dab][Dab][dF]L[Dab][Dab]W; lactam 2-C): 1.04
- CCCCCCC[C@@H](O)CC(=O)N[C@H](CN)C(=O)N[C@H]1CCNC(=O)[C@H](Cc2c[nH]c3ccccc23)NC(=O)[C@H](CCN)NC(=O)[C@H](CCN)NC(=O)[C@H](CC(C)C)NC(=O)[C@@H](Cc2ccccc2)NC(=O)[C@H](CCN)NC1=O [compound 8886] ({Decanoyl(3R-OH)}-[dDap][Dab][Dab][dF]L[Dab][Dab]W; lactam 2-C): 1.04
